# subject of test: Prostaglandin G/H synthase 2 (Homo sapiens) (UniProt P35354)
# Sequence (whole entry): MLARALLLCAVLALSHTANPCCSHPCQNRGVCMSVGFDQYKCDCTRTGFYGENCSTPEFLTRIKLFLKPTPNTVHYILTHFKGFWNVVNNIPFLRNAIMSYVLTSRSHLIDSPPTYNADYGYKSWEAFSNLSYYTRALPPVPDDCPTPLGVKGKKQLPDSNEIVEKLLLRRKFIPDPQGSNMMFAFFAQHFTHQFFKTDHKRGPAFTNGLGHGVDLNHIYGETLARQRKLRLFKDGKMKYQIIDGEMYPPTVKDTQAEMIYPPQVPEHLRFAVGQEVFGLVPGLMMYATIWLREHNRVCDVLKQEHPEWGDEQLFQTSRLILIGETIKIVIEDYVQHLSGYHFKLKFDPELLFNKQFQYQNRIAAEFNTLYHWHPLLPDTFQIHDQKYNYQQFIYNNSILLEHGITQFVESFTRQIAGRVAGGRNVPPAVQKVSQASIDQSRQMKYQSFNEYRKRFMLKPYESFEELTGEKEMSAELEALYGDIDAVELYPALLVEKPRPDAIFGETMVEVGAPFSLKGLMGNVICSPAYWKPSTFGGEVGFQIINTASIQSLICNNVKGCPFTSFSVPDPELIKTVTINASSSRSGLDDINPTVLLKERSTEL
# measurement conditions: Blood, at 10 µM;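 note: human whole blood COX-2 activity read out as PGE2 level measured by enzyme immunoassay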
# Description: Inhibition of cyclooxygenase-2 in Homo sapiens (human) whole blood assessed as PGE2 level at 10 uM by EIA
Calls of active or inactive are those of the source. No cut-off for these calls is given here.

# input smiles, inhibition
rows = [
    ("O=C(Cn1c(=O)sc2cc(C(=O)c3ccccc3F)ccc21)Nc1cccc(Cl)c1", "19.3%"),
    ("O=C(Cn1c(=O)sc2cc(C(=O)c3ccccc3Cl)ccc21)Nc1ccc(Cl)cc1", "53.1%"),
    ("O=C(Cn1c(=O)sc2cc(C(=O)c3ccccc3F)ccc21)Nc1ccccn1", "inactive"),
    ("O=C(Cn1c(=O)sc2cc(C(=O)c3ccccc3Cl)ccc21)Nc1cccc(Cl)c1", "inactive"),
    ("O=C(Cn1c(=O)sc2cc(C(=O)c3ccccc3)ccc21)Nc1ccc(Cl)cc1", "23.1%"),
    ("O=C(Cn1c(=O)sc2cc(C(=O)c3ccccc3Cl)ccc21)Nc1ccccn1", "28.9%"),
    ("O=C(Cn1c(=O)sc2cc(C(=O)c3ccccc3F)ccc21)Nc1ccccc1", "inactive"),
    ("Cc1ccnc(NC(=O)Cn2c(=O)sc3cc(C(=O)c4ccccc4)ccc32)c1", "6.83%"),
    ("Cc1cccc(NC(=O)Cn2c(=O)sc3cc(C(=O)c4ccccc4)ccc32)n1", "inactive"),
    ("O=C(Cn1c(=O)sc2cc(C(=O)c3ccccc3F)ccc21)Nc1ccc(Cl)cc1", "inactive"),
]

// provenance: ChEMBL document CHEMBL3045772
